Where do the numbers come from? From patent US5444155A.

Assayed System: Acetyl Cholinesterase EC 3.1.1.7, Type VS, electric eel (Sigma) (Electrophorus electricus, UniProt O42275)
Sequence (O42275 24-633): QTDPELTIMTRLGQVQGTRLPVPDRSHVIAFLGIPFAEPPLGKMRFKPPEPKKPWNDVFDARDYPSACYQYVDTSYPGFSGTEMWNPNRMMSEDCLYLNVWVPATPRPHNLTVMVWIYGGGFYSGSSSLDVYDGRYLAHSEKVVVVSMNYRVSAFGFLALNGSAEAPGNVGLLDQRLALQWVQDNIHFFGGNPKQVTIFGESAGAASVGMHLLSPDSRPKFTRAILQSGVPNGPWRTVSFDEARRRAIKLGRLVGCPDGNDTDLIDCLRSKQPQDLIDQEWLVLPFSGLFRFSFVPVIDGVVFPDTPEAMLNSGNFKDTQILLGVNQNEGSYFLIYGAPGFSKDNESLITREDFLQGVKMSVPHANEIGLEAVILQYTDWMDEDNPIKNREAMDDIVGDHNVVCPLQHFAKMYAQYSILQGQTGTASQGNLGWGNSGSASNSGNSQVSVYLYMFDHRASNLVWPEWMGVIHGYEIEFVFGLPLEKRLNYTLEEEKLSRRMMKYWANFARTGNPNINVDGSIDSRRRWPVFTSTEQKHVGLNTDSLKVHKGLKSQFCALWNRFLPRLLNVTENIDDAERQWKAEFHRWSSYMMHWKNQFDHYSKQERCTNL
Assay Readout: pKi
Scale note: pKi = -log10(concentration in M).

Endpoint output: pKi of CC(=O)O[C@H]1C=C[C@@H](OP(=O)(O)CCCCCC(=O)O)C1 . Value?
3.20

###

Assayed System: monoclonal antibody (catalytic receptor) produced by hybridoma 37E8, ATCC HB 10868
Assay type: biochemical, mouse
Assay Context: read-out: Ki (free Compound C)
Assay Readout: Ki (µM)
Express the result in µM but write the number alone.

Endpoint output: Ki of CC(=O)O[C@H]1C=C[C@@H](OP(=O)(O)CCCCCC(=O)O)C1 [Compound C] . Value?
7

###

Assayed System: Butyl Cholinesterase EC 3.1.1.8, from horse serum (Sigma) (Equus caballus, UniProt P81908)
Sequence (P81908 whole entry): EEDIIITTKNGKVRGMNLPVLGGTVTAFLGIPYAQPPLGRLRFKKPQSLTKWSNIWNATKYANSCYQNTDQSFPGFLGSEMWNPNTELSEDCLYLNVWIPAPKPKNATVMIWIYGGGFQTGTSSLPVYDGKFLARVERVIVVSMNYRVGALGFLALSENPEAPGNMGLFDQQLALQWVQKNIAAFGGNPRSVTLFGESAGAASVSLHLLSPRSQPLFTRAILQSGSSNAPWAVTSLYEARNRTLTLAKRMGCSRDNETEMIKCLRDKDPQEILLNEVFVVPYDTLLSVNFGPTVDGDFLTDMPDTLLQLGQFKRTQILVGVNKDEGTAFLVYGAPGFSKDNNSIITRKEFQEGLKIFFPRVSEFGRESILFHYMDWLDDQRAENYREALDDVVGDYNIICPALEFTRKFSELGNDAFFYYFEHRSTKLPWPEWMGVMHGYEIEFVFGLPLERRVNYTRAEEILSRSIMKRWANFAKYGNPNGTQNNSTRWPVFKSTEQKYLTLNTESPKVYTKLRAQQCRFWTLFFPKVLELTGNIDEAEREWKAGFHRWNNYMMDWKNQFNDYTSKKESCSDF
Protocol Text: Hydrolysis of Compound 1 by authentic butyl cholinesterase, assayed by gas chromatography
Assay Context: 0.0117 units enzyme used; read-out: ki (hydrolysis of Compound 1, inhibitor Compound C)
Assay Readout: Ki (µM)
Express the result in µM but write the number alone.

Endpoint output: Ki of CC(=O)O[C@H]1C=C[C@@H](OP(=O)(O)CCCCCC(=O)O)C1 [Compound C] . Value?
800
